- tested target: Coagulation factor X (Homo sapiens)
- protocol description: Inhibition of human factor 10a
Measured Kapp accompanies every entry in the list below.

Would you please look over these solved cases?
[[record]]
smiles = "CC(C)(C)c1ccc(C(=O)Nc2ccccc2C(=O)Nc2ccc(Cl)cc2)cc1"
tested_target = "Coagulation factor X (Homo sapiens)"
measured_parameter = "Kapp"
value_reported = "0.5 10^6L/mol"

[[record]]
smiles = "CN1CCN(c2ccc(C(=O)Nc3ccccc3C(=O)Nc3ccc(Cl)cn3)c(OCCCN)c2)CC1"
tested_target = "Coagulation factor X (Homo sapiens)"
measured_parameter = "Kapp"
value_reported = "82 10^6L/mol"

[[record]]
smiles = "CN1CCC(Oc2cc(C(C)(C)C)ccc2C(=O)Nc2ccccc2C(=O)Nc2ccc(Cl)cn2)CC1"
tested_target = "Coagulation factor X (Homo sapiens)"
measured_parameter = "Kapp"
value_reported = "1630 10^6L/mol"

[[record]]
smiles = "CC(C)(CNC(=O)OC(C)(C)C)COc1cc(C(C)(C)C)ccc1C(=O)Nc1ccccc1C(=O)Nc1ccc(Cl)cn1"
tested_target = "Coagulation factor X (Homo sapiens)"
measured_parameter = "Kapp"
value_reported = "2.9 10^6L/mol"


# context switch: different compound, same Kapp
*Q* Any idea what its Kapp is? The compound is `CC(C)(C)OC(=O)N1CCC(Oc2cc(C(C)(C)C)ccc2C(=O)Nc2ccccc2C(=O)Nc2ccc(Cl)cn2)CC1`
*A* 69 10^6L/mol

----------
Measured Kapp accompanies every entry in the list below.
- tested target: Coagulation factor X (Homo sapiens)
- protocol description: Inhibition of human factor 10a

[[record]]
molecule = "CN(C)CCCNC(=S)N1CCC(Oc2cc(C(C)(C)C)ccc2C(=O)Nc2ccccc2C(=O)Nc2ccc(Cl)cn2)CC1"
tested_target = "Coagulation factor X (Homo sapiens)"
value_reported = "170 10^6L/mol"

[[record]]
molecule = "NCCCOc1cc(N2CCOCC2)ccc1C(=O)Nc1ccccc1C(=O)Nc1ccc(Cl)cn1"
tested_target = "Coagulation factor X (Homo sapiens)"
value_reported = "516 10^6L/mol"


*Q* Item `COc1ccc(NC(=O)c2ccccc2NC(=O)c2ccc(OC)cc2)cc1` with Coagulation factor X (Homo sapiens) - Kapp?
*A* 1 10^6L/mol

*Q* Do the same for `CC(C)(C)OC(=O)NCCCOc1cc(C(C)(C)C)ccc1C(=O)Nc1ccccc1C(=O)Nc1ccc(Cl)cn1` please
*A* 54 10^6L/mol

*Q* Do the same for `CC(C)(C)c1ccc(C(=O)Nc2ccccc2C(=O)Nc2ccc(Cl)cn2)c(OC2CCN(Cc3ccsc3)CC2)c1` please
*A* 450 10^6L/mol

*Q* Do the same for `Cn1nccc1C(=O)N1CCC(Oc2cc(C(C)(C)C)ccc2C(=O)Nc2ccccc2C(=O)Nc2ccc(Cl)cn2)CC1` please
*A* 513 10^6L/mol

*Q* Do the same for `NCCCOc1cc(N2CC[C@@H](N)C2)ccc1C(=O)Nc1ccccc1C(=O)Nc1ccc(Cl)cn1` please
*A* 874 10^6L/mol

*Q* Do the same for `CC(C)(C)c1ccc(C(=O)Nc2ccccc2C(=O)Nc2ccc(Cl)cn2)c(OC2CCNCC2)c1` please
*A* 1110 10^6L/mol

*Q* Do the same for `COCCN1CCC(Oc2cc(C(C)(C)C)ccc2C(=O)Nc2ccccc2C(=O)Nc2ccc(Cl)cn2)CC1` please
*A* 3080 10^6L/mol

*Q* Do the same for `CC(C)(C)c1ccc(C(=O)Nc2ccccc2C(=O)Nc2ccc(Cl)cn2)c(OC2CCN(Cc3ccccc3C(=O)O)CC2)c1` please
*A* 1160 10^6L/mol
